Hey, just so you know, these numbers are from ChEMBL document CHEMBL1201862.

Tested on: A549
Experiment: NCI tumour cell line growth inhibition, 48 h
Activity calls are given as the source filed them. Rule as the data show it: active = GI50 up to about 1.1 µM and inactive = higher.
Respond with a class label; see active, inactive

compound | assigned.category
COc1ccc(OC)c(N2C(=O)CSC2c2cc(OC)c(OC)c(OC)c2)c1 (stereo unspecified) | inactive

Task: Call for entry `Cc1cc(=O)oc2c(C)c3oc(CBr)c(Br)c3cc12` :
Result: inactive

Task: Call for entry `CSc1c(C#N)c(O)nc(N)c1C(=O)Nc1ccc(C)cc1` :
Result: inactive

###

For each of the molecules below, state its GI50.
Test system: OVCAR-5
Test: NCI tumour cell line growth inhibition, 48 h
The source made the active and inactive calls. Rule as the data show it: active = GI50 up to about 1.1 µM and inactive = higher.

Sample records with GI50:
cpd.smiles | GI50
CN(C)Cc1cc(/N=N/c2ccccc2Cl)ccc1O | 22.9 µM (inactive)
Cc1c(S(=O)(=O)N/C(=N\O)Nc2ccc(Cl)cc2)sc2ccc(Cl)cc12 | 18.1 µM (inactive)
COc1ccc(-c2c(CN3CCOCC3)sc3nc4ccccc4n23)cc1 | 32.3 µM (inactive)
S=c1oc(CCCCCCCCc2nn(CNc3ccc(Cl)cc3)c(=S)o2)nn1CNc1ccc(Cl)cc1 | 60.5 µM (inactive)

Hey, can you go through the list below and give me GI50 for every item?
1. Cc1ccc(Cc2n[nH]c(=O)n2/N=C\CC/C=N\n2c(Cc3ccc(C)cc3)n[nH]c2=O)cc1
2. c1ccc2c(c1)sc1c3cnccc3ccc21
3. Cc1cc2c(c(C(=O)O)c1C)-c1cccc(Cl)c1C2=O
4. CCOC(=O)C(=O)Nc1c(C)cccc1C(C)C

Result:
1. > 100 µM (inactive)
2. > 100 µM (inactive)
3. > 100 µM (inactive)
4. > 100 µM (inactive)

Hey, can you go through the list below and give me GI50 for every item?
1. COc1ccc2c(c1)c1cc(OC)ccc1n2CCCCOc1ccc(-c2c3ccccc3c(-c3ccc(OCCCCn4c5ccc(OC)cc5c5cc(OC)ccc54)cc3)c3ccccc23)cc1
2. O=c1[nH]nc(-c2ccccc2)c2[nH]c3c(c12)Cc1ccccc1-3

Result:
> 100 µM (inactive)
7.16 µM (inactive)
